# target_or_test_system: UniProt:Q92633
# experiment_summary: LPAR1 intracellular calcium mobilization assay (antagonist mode, FLIPR)
# Type: cell-based
# applied_conditions: CHO-K1 EDG2 cells expressing human LPAR1, LPA 18:2 at EC80 (100 nM), test compound 0.5 nM to 10 μM
// map EC50 to label using band A: < 80 nM; band B: ≥ 80 nM and < 300 nM; band C: ≥ 300 nM

Any idea which band C[C@@H](OC(=O)Nc1c(-c2ccc(NC(=O)[C@@H]3C[C@H]3c3ccc(F)nc3)cn2)nnn1C)c1cc(F)cnc1F (mixture of isomers) is in? band A

Any idea which band C[C@@H](OC(=O)Nc1c(-c2ccc(NC(=O)[C@]3(C#N)C[C@H]3C(F)(F)F)cn2)nnn1C)c1cccnc1Cl is in? band B

Any idea which band C[C@@H](OC(=O)Nc1c(-c2cnc(NC(=O)C3(C#N)CC3)cn2)nnn1C)c1cccnc1Cl is in? band B

Any idea which band C[C@@H](OC(=O)Nc1c(-c2ccc(NC(=O)C34CC(C#N)(C3)C4)cn2)nnn1C)c1cc(F)cnc1F is in? band B

Any idea which band C[C@@H](OC(=O)Nc1c(-c2ccc(NC(=O)c3cccc(C#N)n3)cn2)nnn1C)c1cccnc1Cl is in? band C

Any idea which band CC(=O)Nc1ccc(-c2nnn(C)c2NC(=O)OC(C)c2ccc(F)nc2Cl)nc1 (stereo not shown) is in? band C

Any idea which band C[C@@H](OC(=O)Nc1c(-c2ccc(NC(=O)c3cc(F)cnc3F)cn2)nnn1C)c1cc(F)cnc1F is in? band B

Any idea which band C[C@@H](OC(=O)Nc1c(-c2ccc(NC(=O)c3ccc(C(F)(F)F)nc3)cn2)nnn1C)c1cccnc1F is in? band A

Any idea which band C[C@@H](OC(=O)Nc1c(-c2ccc(NC(=O)[C@@H]3C[C@@H]3C#N)cn2)nnn1C)c1cccnc1Cl is in? band C

Any idea which band C[C@@H](OC(=O)Nc1c(-c2ccc(NC(=O)C3CCC3(F)F)cn2)nnn1C)c1cccnc1Cl (stereo partly shown) is in? band B

Any idea which band C[C@@H](OC(=O)Nc1c(-c2ccc(NC(=O)[C@@H]3CC3(F)F)cn2)nnn1C)c1cc(F)cnc1F is in? band B

Any idea which band CO[C@H]1C[C@H](C(=O)Nc2ccc(-c3nnn(C)c3NC(=O)O[C@H](C)c3cccnc3Cl)nc2)C1 is in? band A

Any idea which band C[C@@H](OC(=O)Nc1c(-c2ccc(NC(=O)OC(C)(C)C)cn2)nnn1C)c1cccnc1Cl is in? band C

Any idea which band C[C@@H](OC(=O)Nc1c(-c2ccc(NC(=O)C3CC4(C3)CC3(CCC3)C4)cn2)nnn1C)c1cccnc1Cl is in? band A

Any idea which band C[C@@H](O)C(=O)Nc1ccc(-c2nnn(C)c2NC(=O)O[C@H](C)c2cccnc2Cl)nc1 is in? band C

Any idea which band COc1cc(C(=O)Nc2ccc(-c3nnn(C)c3NC(=O)O[C@H](C)c3cc(F)cnc3F)nc2)ccn1 is in? band B

Any idea which band C[C@@H](OC(=O)Nc1c(-c2ccc(NC(=O)C3CC4(CC(F)C4)C3)cn2)nnn1C)c1cccnc1Cl (stereo partly shown) is in? band A

Any idea which band C[C@@H](OC(=O)Nc1c(-c2ccc(NC(=O)[C@H]3C[C@@H]3C#N)cn2)nnn1C)c1cccnc1Cl is in? band C

Any idea which band C[C@@H](OC(=O)Nc1c(-c2ccc(NC(=O)C3(C#N)CC3)c(F)n2)nnn1C)c1cccnc1Cl is in? band A

Any idea which band CO[C@]1(C#N)C[C@H](C(=O)Nc2ccc(-c3nnn(C)c3NC(=O)O[C@H](C)c3cccnc3Cl)nc2)C1 is in? band B

Any idea which band C[C@@H](OC(=O)Nc1c(-c2ccc(NC(=O)C3C4CCOC43)cn2)nnn1C)c1cccnc1Cl (stereo partly shown) is in? band C

Any idea which band C[C@@H](OC(=O)Nc1c(-c2ccc(NC(=O)C3CC(NC4CC4)C3)cn2)nnn1C)c1cccnc1Cl (stereo partly shown) is in? band C

Any idea which band C[C@@H](OC(=O)Nc1c(-c2ccc(NC(=O)c3ccnc(C(F)(F)F)c3F)cn2)nnn1C)c1cc(F)cnc1F is in? band A

Any idea which band C[C@@H](OC(=O)Nc1c(-c2ccc(NC(=O)C3CC4(CC(C#N)C4)C3)cn2)nnn1C)c1cccnc1Cl (stereo partly shown) is in? band B

Any idea which band Cc1ncc(F)cc1[C@@H](C)OC(=O)Nc1c(-c2ccc(NC(=O)[C@@H]3CC3(F)F)cn2)nnn1C is in? band B

Any idea which band C[C@@H](OC(=O)Nc1c(-c2ccc(NC(=O)[C@H]3[C@H](C4CC4)C3(F)F)cn2)nnn1C)c1cc(F)cnc1F (mixture of isomers) is in? band A

Any idea which band C[C@@H](OC(=O)Nc1c(-c2ccc(NC(=O)C3(c4cccnc4)CC(F)(F)C3)cn2)nnn1C)c1cccnc1Cl is in? band C

---

# target_or_test_system: human LPAR1 (Homo sapiens (Human), UniProt Q92633)
# Sequence (Q92633 whole entry): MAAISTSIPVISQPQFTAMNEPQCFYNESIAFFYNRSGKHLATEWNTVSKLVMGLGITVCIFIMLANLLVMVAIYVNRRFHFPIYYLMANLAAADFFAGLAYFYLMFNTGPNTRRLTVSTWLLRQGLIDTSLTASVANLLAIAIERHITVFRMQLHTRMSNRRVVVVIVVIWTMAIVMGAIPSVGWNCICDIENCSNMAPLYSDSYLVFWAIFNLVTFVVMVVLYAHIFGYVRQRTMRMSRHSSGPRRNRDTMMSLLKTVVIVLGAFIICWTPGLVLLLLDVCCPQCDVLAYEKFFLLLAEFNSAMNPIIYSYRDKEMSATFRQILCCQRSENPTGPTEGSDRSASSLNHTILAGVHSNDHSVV
# experiment_summary: LPAR1 intracellular calcium mobilization assay (antagonist mode, FLIPR)
# Format: cell-based
# applied_conditions: CHO-K1 EDG2 cells expressing human LPAR1, LPA 18:2 at EC80 (100 nM), test compound 0.5 nM to 10 μM
quantity_measured: EC50 (nM)
Answer with a number only, understood to be in nM.

Return the recorded EC50 value; entry: C[C@@H](OC(=O)Nc1c(-c2ccc(NC(=O)C3(C#N)CC4(CC4)C3)cn2)nnn1C)c1cccnc1Cl 16.1

Return the recorded EC50 value; entry: C[C@@H](OC(=O)Nc1c(-c2ccc(NC(=O)C3OCCO3)cn2)nnn1C)c1cccnc1Cl 933

Return the recorded EC50 value; entry: C[C@@H](OC(=O)Nc1c(-c2ccc(NC(=O)[C@]3(F)C[C@H](O)C3)cn2)nnn1C)c1cccnc1Cl 344

Return the recorded EC50 value; entry: Cc1cc(C(=O)Nc2ccc(-c3nnn(C)c3NC(=O)O[C@H](C)c3cc(F)cnc3F)nc2)cnn1 412

Return the recorded EC50 value; entry: C[C@@H](OC(=O)Nc1c(-c2ccc(NC(=O)C3(C(N)=O)CC3)cn2)nnn1C)c1cccnc1Cl 601

Return the recorded EC50 value; entry: Cc1cnccc1C(=O)Nc1ccc(-c2nnn(C)c2NC(=O)O[C@H](C)c2cccnc2Cl)nc1 1040

Return the recorded EC50 value; entry: C[C@@H](OC(=O)Nc1c(-c2ccc(NC(=O)C3(C(F)F)CC(F)(F)C3)cn2)nnn1C)c1cccnc1Cl 49.9

Return the recorded EC50 value; entry: C[C@@H](OC(=O)Nc1c(-c2ccc(NC(=O)c3cnc(C(F)F)nc3)cn2)nnn1C)c1cc(F)cnc1Cl 21.5

Return the recorded EC50 value; entry: C[C@@H](OC(=O)Nc1c(-c2ccc(NC(=O)C3(C#N)CC(O)C3)cn2)nnn1C)c1cccnc1Cl (stereo partly shown) 726

Return the recorded EC50 value; entry: C[C@@H]1CCN(C(=O)Nc2ccc(-c3nnn(C)c3NC(=O)O[C@H](C)c3cccnc3Cl)nc2)C1 359

---

# target_or_test_system: human LPAR1 (Homo sapiens (Human))
# experiment_summary: LPAR1 intracellular calcium mobilization assay (antagonist mode, FLIPR)
# Format: cell-based
# applied_conditions: CHO-K1 EDG2 cells expressing human LPAR1, LPA 18:2 at EC80 (100 nM), test compound 0.5 nM to 10 μM
Note to self: EC50 under 10 nM means True, ties and anything higher get False.

# TODO verify EC50 < 10 nM strictly for this compound: C[C@@H](OC(=O)Nc1c(-c2ccc(NC(=O)C3(CF)CC3)cn2)nnn1C)c1cccnc1Cl False

# TODO verify EC50 < 10 nM strictly for this compound: Cc1nc(-c2nnn(C)c2NC(=O)O[C@H](C)c2cc(F)cnc2F)ccc1NC(=O)c1cnc(C(F)(F)F)nc1 True

# TODO verify EC50 < 10 nM strictly for this compound: C[C@@H](OC(=O)Nc1c(-c2ccc(NC(=O)c3cnc(C(F)(F)F)nc3)cn2)nnn1C)c1cccnc1Cl True

# TODO verify EC50 < 10 nM strictly for this compound: C[C@@H](OC(=O)Nc1c(-c2ccc(NC(=O)[C@]3(C#N)C[C@H]3F)cn2)nnn1C)c1cc(F)cnc1F False

# TODO verify EC50 < 10 nM strictly for this compound: C[C@@H](OC(=O)Nc1c(-c2ccc(NC(=O)c3cnc(C(F)(F)F)nc3)c(F)n2)nnn1C)c1cccnc1Cl True

# TODO verify EC50 < 10 nM strictly for this compound: C[C@@H](OC(=O)Nc1c(-c2ccc(NC(=O)c3ccnc(C(F)F)c3)cn2)nnn1C)c1cc(F)cnc1F False

# TODO verify EC50 < 10 nM strictly for this compound: C[C@@H](OC(=O)Nc1c(-c2ccc(NC(=O)c3ccnc(F)c3)cn2)nnn1C)c1cc(F)cnc1F False

Provenance of the data: patent US11912686B2
